Sourced from patent US20260008793A1

protocol: LNP size, PDI and zeta potential by Dynamic Light Scattering (Method A)
Assay type: physicochemical
measurement.setup: LNP formulated by Method A, Luciferase-mRNA loaded, DLS
recorded.metric: Size (nm)
Use nm as the unit, but write only the number.

Record excerpt, results attached:
INSERT INTO results (compound, value_reported) VALUES
  ('CCCCCCCCO[Si](C)(C)O[Si](C)(C)OC(CCCCCCC)OCCCCCCN(CCCCO)CCCCCCOC(=O)C(CCCCCCCC)SCCCCC (stereo not drawn)', 237.5),
  ('CCCCCCCCOC(CCCCCN(CCCCO)CCCCCC(OCCCCCCCC)O[Si](C)(C)O[Si](C)(C)CCCCCCCC)O[Si](C)(C)O[Si](C)(C)CCCCCCCC (stereo not drawn)', 152.1);

Now for a further compound.
Query :: Which Size (nm) value is on record for CCCCCCCCOC(CCCCCN(CCO)CCCCCCCC(=O)OC(CCCCCCCC)CCCCCCCC)O[Si](C)(C)O[Si](C)(C)OCCCCCCCC (stereo not drawn) ?
Result :: 175.0

====

Known Size (nm) of a selection of molecules
protocol: LNP size, PDI and zeta potential by Dynamic Light Scattering (Method A)
Type: physicochemical
measurement.setup: LNP formulated by Method A, Luciferase-mRNA loaded, DLS
Method: The synthesized lipids were tested in term of in vitro transfection efficacy and toxicity on HeLa cells. In order to perform the mentioned biological tests, appropriate LNPs had to be formulated from the synthesized lipids. The formulation technique was different in Method A and B. The particle size, PDI and zeta potential of resulting LNPs were determined by means of Dynamic Light Scattering technique (DLS). […]
Write the number in nm without appending the unit.

INSERT INTO assay_data (molecule, value_reported) VALUES
  ('CCCCCCCCOC(CCCCCN(CCO)CCCCCCCC(=O)OC(CCCCCCCC)CCCCCCCC)O[Si](C)(C)CCCCCCCC (stereo not drawn)', 170),
  ('CCCCCCCC[Si](C)(C)OC(CCCCCCC)OCCCCCCN(CCCCO)CCCCCCOC(CCCCCCC)O[Si](C)(C)CCCCCCCC (stereo not drawn)', 212.9),
  ('CCCCCCCCOC(CCCCCN(CCCCO)CCC[C@@H](C)C1CCC2C3CCC4C[C@H](OC)CC[C@]4(C)C3CC[C@@]21C)O[Si](C)(C)O[Si](C)(C)OCCCCCCCC (stereo partly drawn)', 138.4),
  ('CCCCCCCC[Si](C)(C)O[Si](C)(C)OC(CCCCCCC)OCCCCCCN(CCCCO)CCC[C@@H](C)C1CCC2C3CCC4C[C@H](OC)CC[C@]4(C)C3CC[C@@]21C (stereo partly drawn)', 139.4),
  ('CCCCCCCCC(CCCCCC)CO[Si](C)(C)OC(CCCCCCC)OCCCCCCN(CCCCO)CCC[C@@H](C)C1CCC2C3CCC4C[C@H](OC)CC[C@]4(C)C3CC[C@@]21C (stereo partly drawn)', 206.5);

Query :: Size (nm) for CCCCCCCCOC(CCCCCN(CCCCO)CCC[C@@H](C)C1CCC2C3CCC4C[C@H](OC)CC[C@]4(C)C3CC[C@@]21C)O[Si](C)(C)OCC(CCCCCC)CCCCCCCC (stereo partly drawn) ?
Result :: 164.5

Query :: Continue with CCCCCCCCCCSC(CCCC)C(=O)OCCCCCCN(CCCCO)CCCCCC(OCCCCCCCC)O[Si](C)(C)OCCCCCCCC (stereo not drawn)
Result :: 224.2

Query :: Now the molecule CC/C=C\C/C=C\C/C=C\C/C=C\C/C=C\CCCCN(CCCCO)CCCCCCO[Si](C)(C)OC(CCCCCCC)OCCCCCCCC (stereo not drawn)
Result :: 197.2

Query :: Entry CCCCCCCCCCSC(CCCC)C(=O)OCCCCCCN(CCCCO)CCCCCCOC(CCCCCCC)O[Si](C)(C)O[Si](C)(C)OCCCCCCCC (stereo not drawn) please
Result :: 180.5

Query :: How about this molecule: CCCCCCCCSC(CCCCCCC)O[Si](C)(C)OCCCCCCN(CCCCO)CCCCCCO[Si](C)(C)OC(CCCCCCC)SCCCCCCCC (stereo not drawn)
Result :: 130.2

Query :: Next up: CCCCCCCCOC(CCCCCCCC)O[Si](C)(C)OCCCCCCN(CCCCO)CCCCCCOC(=O)C(CCCCCC)CCCCCCCC (stereo not drawn)
Result :: 159.7

Query :: Again, but for CCCCCCCCOC(CCCCCC)O[Si](C)(C)OCCCCCCN(CCCCO)CCCCCCOC(=O)C(CCCCCC)CCCCCCCC (stereo not drawn)
Result :: 125.1
